Where do the numbers come from? From patent US8779142B2.

tested on: SK-BR-3 cells; assay: Measurement of cell growth inhibition (crystal violet staining method); type: cell-based; details: Homo sapiens; breast cancer SK-BR-3 cells, 72 hr culture with test substance
EXPERIMENTAL READOUT: IC50 (µM)

Example entries begin here.
> print(dat)
                                   molecule  measured.value
1  CC(C)c1nn(-c2ccc(C(N)=O)c(NC3CCN(C)CC3)c2)c2nccc(-c3cnc4ccccc4c3)c12 [Example 24]            0.03
2  CCCc1cn(-c2ccc(C(N)=O)c(N[C@H]3CC[C@H](O)CC3)c2)c2nccc(-c3cnc4ccccc4c3)c12 [Example 45]            0.01
3  Cn1cc(-c2cn(-c3ccnc4c3c(C(F)(F)F)nn4-c3ccc(C(N)=O)c(N)c3)cn2)cn1 [Example 157]            0.19
4  CC(C)c1nn(-c2ccc(C(N)=O)cc2CN2CCOCC2)c2nccc(-n3cnc(-c4cnn(C)c4)c3)c12 [Example 127]            1.56
5  CC(C)c1nn(-c2ccc(C(N)=O)cc2N)c2nccc(-n3cnc(-c4cnn(C)c4)c3)c12 [Example 107]             0.9

P: Cn1cc(-c2cn(-c3ccnc4c3c(C(F)(F)F)nn4-c3ccc(C(N)=O)cc3-c3ccccc3)cn2)cn1 [Example 172]
Q: CC(C)c1nn(-c2ccc(C(N)=O)cc2C2CC2)c2nccc(-n3cnc(-c4cccnc4)c3)c12 [Example 138]
R: CC(C)c1nn(-c2ccc(C(N)=O)c(NC3CCNCC3)c2)c2nccc(-c3cnc4ccccc4c3)c12 [Example 76]
S: CC(C)c1nn(-c2ccc(C(N)=O)c(NC3CCN(C(=O)CN)CC3)c2)c2nccc(-c3cnc4ccccc4c3)c12 [Example 79]
T: CCNc1cc(C(N)=O)ccc1-n1nc(C(F)(F)F)c2c(-n3cnc(-c4cnn(C)c4)c3)ccnc21 [Example 162]
Lookup: # rank_down: sort by IC50, max first Lab note: final answer is the ordered label list.
Found: P, Q, T, R, S

1: CC(C)c1nn(-c2ccc(C(N)=O)cc2Cl)c2nccc(-n3cnc(-c4ccc(C(N)=O)cc4)c3)c12 [Example 152]
2: CC(C)Nc1cc(-n2nc(C(C)C)c3c(-n4cnc(-c5cccnc5)c4)ccnc32)ccc1C(N)=O [Example 140]
3: CC(C)Nc1cc(-n2nc(C(F)(F)F)c3c(-n4cnc(-c5cnn(C)c5)c4)ccnc32)ccc1C(N)=O [Example 160]
4: CC(C)c1nn(-c2ccc(C(N)=O)c(NC(C)(C)C)c2)c2nccc(-n3cnc(-c4cnn(C)c4)c3)c12 [Example 112]
5: NC(=O)c1ccc(-n2nc(C(F)(F)F)c3c(-n4cnc(-c5cccnc5)c4)ccnc32)c(N)c1 [Example 177]
Lookup: Rank items: key IC50, increasing. Lab note: final answer is the ordered label list.
Found: 3, 4, 2, 5, 1

P: COc1ccc(-c2cn(-c3ccnc4c3c(C(C)C)nn4-c3ccc(C(N)=O)c(N(O)C4CCCCC4)c3)cn2)cc1 [Example 83]
Q: CCCc1cc(C(N)=O)ccc1-n1nc(C(F)(F)F)c2c(-n3cnc(-c4cnn(C)c4)c3)ccnc21 [Example 156]
R: Cc1cc(C(N)=O)ccc1-n1nc(C(C)C)c2c(-c3cnc4ccccc4c3)ccnc21 [Example 80]
S: CCCc1cc(C(N)=O)ccc1-n1nc(C(C)C)c2c(-n3cnc(-c4cnn(C)c4)c3)ccnc21 [Example 103]
Lookup: Rank items: key IC50, increasing. Lab note: final answer is the ordered label list.
Found: Q, P, S, R

P: Cc1cc(C(N)=O)ccc1-n1nc(C(F)(F)F)c2c(-c3cnc4ccccc4c3)ccnc21 [Example 82]
Q: CC(C)c1nn(-c2ccc(C(N)=O)c(NCC(C)(C)C)c2)c2nccc(-c3cnc4ccccc4c3)c12 [Example 25]
Lookup: Quick one: lower IC50, P or Q ? API: response body contains the label of the selected item.
Found: Q
(Q: 0.07 µM, P: 0.23 µM)
